Cited source for all entries: the supplement of paper PMC10567573

B1: BTBD1 (parent)
chain: TSAEIELPDVEPAAFLALLRFLYS

# Variants of: B1
# Experimental details: protein stability index of a GFP-peptide fusion (GPS, HEK-293T) (PSI 1-6); higher = more stable;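 further: lentivirally expressed fusions sorted by FACS into six bins by GFP to DsRed ratio, PSI derived from sequencing read proportions per bin multiplied by bin number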
# Condition set: c terminus: a fixed tail appended
Experimental endpoint: protein stability index
The answer should be a number; do not append a unit.

Previously resolved entries follow.
1) A3S :: 1.67
2) L22Y :: 1.83
3) A17I :: 1.4

Input L7S . Output protein stability index: 1.79

Input R20P . Output protein stability index: 2.01

Input F21I . Output protein stability index: 2.25

Input P12I . Output protein stability index: 2.24

Input E4F . Output protein stability index: 2.24

Input A14S . Output protein stability index: 2.41

Input L22I . Output protein stability index: 1.75

Input R20E . Output protein stability index: 1.77

Input E11Y . Output protein stability index: 2.14

Input L7N . Output protein stability index: 1.9
